In this section we review reported EC50 values for a set of compounds.
- assayedTarget: hLPA6 (Homo sapiens, UniProt P43657)
- Construct: expressed in transfected cells; host or cells: 293A cells
- Sequence (P43657 whole entry): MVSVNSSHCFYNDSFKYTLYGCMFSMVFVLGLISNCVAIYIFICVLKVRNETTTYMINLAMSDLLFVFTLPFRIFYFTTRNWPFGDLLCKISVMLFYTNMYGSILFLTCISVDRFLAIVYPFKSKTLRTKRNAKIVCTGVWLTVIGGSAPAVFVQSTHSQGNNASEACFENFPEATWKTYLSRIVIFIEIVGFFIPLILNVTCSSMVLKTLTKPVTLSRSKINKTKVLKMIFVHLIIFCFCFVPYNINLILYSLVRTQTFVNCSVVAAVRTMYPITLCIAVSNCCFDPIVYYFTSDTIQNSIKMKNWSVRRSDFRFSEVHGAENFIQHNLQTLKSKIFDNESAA
- testMethodNotes: TGFα-shedding assay, LPA6
- Type: cell-based
- conditionParameters: 293A cells, AP-TGFα release, 1 h; bound

Solved cases below.
compound	experimentalResult
CCCCCCCC/C=C\CCCCCCCC(=O)OCC1COP(=O)(O)C1 (stereo not drawn)	> 3 µM
CCCCCCCC/C=C\CCCCCCCC(=O)OC[C@@H]1COP(=O)(O)O1	> 3 µM

Q) // EC50 lookup, key: CCCCCCCC/C=C\CCCCCCCC(=O)OC[C@@H]1CCP(=O)(O)O1
A) > 3 µM

* * *

In this section we review reported pEC50 values for a set of compounds.
- assayedTarget: hLPA3 (Homo sapiens)
- testMethodNotes: TGFα-shedding assay, LPA3
- conditionParameters: 293A cells, AP-TGFα release, 1 h
Interpret pEC50 as the negative base-10 log of the concentration measured in mol/L.

Solved cases below.
compound	pEC50
CCCCCCCC/C=C\CCCCCCCC(=O)OCC(CO)CP(=O)(O)O (stereo not shown)	7.94
CCCCCCCC/C=C\CCCCCCCC(=O)OC[C@@H](O)CCP(=O)(O)O	8.25
CCCCCCCC/C=C\CCCCCCCC(=O)OC[C@@H]1COP(=O)(O)O1	6.36

Turning now to a further compound:
Q) Form field: pEC50 recorded for CCCCCCCC/C=C\CCCCCCCC(=O)OCC1COP(=O)(O)C1 (stereo not shown) with hLPA3 (Homo sapiens) (enter value)
A) 6.54

* * *

- assayedTarget: hLPA4 (Homo sapiens, UniProt Q99677)
- Construct: expressed in transfected cells; host or cells: 293A cells
- Sequence (Q99677 whole entry): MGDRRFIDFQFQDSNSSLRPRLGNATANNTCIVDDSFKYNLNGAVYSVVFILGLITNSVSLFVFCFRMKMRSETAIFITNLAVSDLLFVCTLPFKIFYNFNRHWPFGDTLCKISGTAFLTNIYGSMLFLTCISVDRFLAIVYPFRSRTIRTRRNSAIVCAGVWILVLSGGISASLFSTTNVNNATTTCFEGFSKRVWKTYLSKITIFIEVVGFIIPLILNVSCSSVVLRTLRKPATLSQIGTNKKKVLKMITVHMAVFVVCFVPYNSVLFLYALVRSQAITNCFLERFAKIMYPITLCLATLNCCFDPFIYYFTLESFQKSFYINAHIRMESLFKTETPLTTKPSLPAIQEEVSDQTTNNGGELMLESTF
- testMethodNotes: TGFα-shedding assay, LPA4
- Format: cell-based
- conditionParameters: AP-TGFα release, 293A cells; read-out: Emax ± SEM hLPA4 (converted)
measuredParameter: Emax (%)
Record the value in %, omitting the unit from your answer.

Solved cases below.
compound	Emax, %
CCCCCCCC/C=C\CCCCCCCC(=O)OCC1COP(=O)(O)C1 (centres unmarked)	19.6
CCCCCCCC/C=C\CCCCCCCC(=O)OC[C@@H](O)CCP(=O)(O)O	23.5
CCCCCCCC/C=C\CCCCCCCC(=O)OC[C@@H]1CCP(=O)(O)O1	23.3

Q) // Emax lookup, key: CCCCCCCC/C=C\CCCCCCCC(=O)OCC(CO)CP(=O)(O)O (centres unmarked)
A) 24.9

Q) What about this compound? CCCCCCCC/C=C\CCCCCCCC(=O)OC[C@@H]1COP(=O)(O)O1
A) 17.2

* * *

- assayedTarget: hLPA3 (Homo sapiens, UniProt Q9UBY5)
- Construct: expressed in transfected cells; host or cells: 293A cells
- Sequence (Q9UBY5 whole entry): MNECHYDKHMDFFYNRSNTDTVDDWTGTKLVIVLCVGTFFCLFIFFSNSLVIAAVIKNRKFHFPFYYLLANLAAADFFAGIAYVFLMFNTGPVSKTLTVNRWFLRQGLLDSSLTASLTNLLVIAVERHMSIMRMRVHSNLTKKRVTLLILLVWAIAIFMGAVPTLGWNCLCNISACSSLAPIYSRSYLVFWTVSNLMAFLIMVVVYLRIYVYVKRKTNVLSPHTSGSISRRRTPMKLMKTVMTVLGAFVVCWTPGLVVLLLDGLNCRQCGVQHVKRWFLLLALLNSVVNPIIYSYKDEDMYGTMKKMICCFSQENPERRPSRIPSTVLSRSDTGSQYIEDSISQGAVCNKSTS
- testMethodNotes: TGFα-shedding assay, LPA3
- Type: cell-based
- conditionParameters: AP-TGFα release, 293A cells; read-out: Emax ± SEM hLPA3 (converted)
measuredParameter: Emax

Solved cases below.
compound	assayedTarget	Emax
CCCCCCCC/C=C\CCCCCCCC(=O)OC[C@@H](O)CCP(=O)(O)O	hLPA3 (Homo sapiens, UniProt Q9UBY5)	44.3%
CCCCCCCC/C=C\CCCCCCCC(=O)OC[C@@H]1COP(=O)(O)O1	hLPA3 (Homo sapiens, UniProt Q9UBY5)	16.8%
CCCCCCCC/C=C\CCCCCCCC(=O)OCC1COP(=O)(O)C1 (centres unmarked)	hLPA3 (Homo sapiens, UniProt Q9UBY5)	30.8%
CCCCCCCC/C=C\CCCCCCCC(=O)OC[C@@H]1CCP(=O)(O)O1	hLPA3 (Homo sapiens, UniProt Q9UBY5)	37.4%

Turning now to a further compound:
Q) // Emax lookup, key: CCCCCCCC/C=C\CCCCCCCC(=O)OCC(CO)CP(=O)(O)O (centres unmarked)
A) 42.7%
